Experiment: in vitro
Details: chlorocebus sabaeus, Vero E6 (Vero C1008) cells, CC50
Please go through the items and note down their log10(CC50 at 48 h).
Values are log10 of CC50 at 48 h in µM.

Ask | # return recorded log10(CC50 at 48 h) for input O=C(NO)c1ccc(C2=Nc3ccccc3Oc3ccccc32)cc1
Reply | 0.19

Ask | Fill in reported log10(CC50 at 48 h) for this entry: CC1(C)CCC(c2ccc(Cl)cc2)=C(CN2CCN(c3ccc(C(=O)NS(=O)(=O)c4ccc(N[C@H](CCN5CCOCC5)CSc5ccccc5)c(S(=O)(=O)C(F)(F)F)c4)cc3)CC2)C1
Reply | 0.67

Ask | Item CN1CCCN(C(c2ccccc2)c2ccc(Cl)cc2)CC1 (stereo not given) : provide log10(CC50 at 48 h)
Reply | 1.32

Ask | Dear colleague, please send me the reported log10(CC50 at 48 h) for CCOC(=O)Oc1c(OC)cc(C(=O)OC2CC3CN4CCc5c([nH]c6cc(OC)ccc56)C4CC3C(C(=O)OC)C2OC)cc1OC (stereo not given) when you can.
Reply | 0.95

Ask | Give the reported log10(CC50 at 48 h) for this compound. COc1cc2c3cc1Oc1c(OC)c(OC)cc4c1[C@@H](Cc1cccc(c1)Oc1ccc(c(O)c1)C[C@@H]3N(C)CC2)N(C)CC4
Reply | 1.01

Ask | Respond only with log10(CC50 at 48 h) recorded for CNCC(O)CC12CCC(c3ccccc31)c1ccccc12 (stereo not given)
Reply | 1.45

Ask | Report log10(CC50 at 48 h) for COC(=O)C1C2CC3c4[nH]c5ccccc5c4CCN3CC2CC(OC(=O)c2cc(OC)c(OC)c(OC)c2)C1OC (stereo not given)
Reply | 1.06

Ask | Supply measured log10(CC50 at 48 h) of CN1CCC(CN2c3ccccc3Sc3ccccc32)C1 (stereo not given) in your reply.
Reply | 1.17

Ask | Give recorded log10(CC50 at 48 h). CC(C)(C)NC(=O)[C@@H]1C[C@@H]2CCCC[C@@H]2CN1C[C@@H](O)[C@H](Cc1ccccc1)NC(=O)[C@H](CC(N)=O)NC(=O)c1ccc2ccccc2n1
Reply | 1.26

Ask | Dear colleague, please send me the reported log10(CC50 at 48 h) for OCCN1CCN(CC/C=C2/c3ccccc3Sc3ccc(Cl)cc32)CC1 when you can.
Reply | 0.82

---

Tested on: SARS-CoV-2
Test: microbe, parasite or virus in culture
Format: functional, organism-based, Chlorocebus sabaeus, Vero C1008
Details: Severe acute respiratory syndrome coronavirus 2, Vero C1008, 48 h; read-out: IC50
pIC50: −log10 of the molar value.
quantity_name: pIC50

Ask | Look up pIC50 of O=c1ccc2ccc(OCCCCN3CCN(c4cccc5sccc45)CC3)cc2[nH]1 and report it.
Reply | < 4.00

Ask | Complete the entry with pIC50 for CCCCCCCCNC(C)C(O)c1ccc(SC(C)C)cc1 (configuration not stated)
Reply | < 4.00

Ask | State its pIC50 for this compound: CC(C)N1CCN(c2ccc(OCC3COC(Cn4cncn4)(c4ccc(Cl)cc4Cl)O3)cc2)CC1 (configuration not stated)
Reply | < 4.90

Ask | Return pIC50 (reported value) for this compound: COc1ccc2c(c1)N(CCCN(C)C)c1ccccc1S2
Reply | < 4.00

Ask | Let me know recorded pIC50 for CC(C)[C@H](N/C(=N\S(=O)(=O)c1ccc(Cl)cc1)N1C[C@@H](c2ccccc2)C(c2ccc(Cl)cc2)=N1)C(N)=O , thanks.
Reply | < 4.30

Ask | Quick one: give measured pIC50 for c1ccc(C(c2ccccc2)N2CCN(CCCC3(c4ccccc4)OCCO3)CC2)cc1
Reply | 5.00

Ask | State its pIC50: CCN(CCO)CCC[C@H](C)Nc1ccnc2cc(Cl)ccc12
Reply | ~4.73

---

Assay: in vitro
Conditions: chlorocebus sabaeus, Vero E6 (Vero C1008) cells, pCC50
Record form. Attribute: CC50 at 48 h. Fill in for each entry.
Numeric answer only, unit µM assumed.

Ask | Read the entry COc1cc(Br)c2oc(C3CCNCC3)cc2c1 [BROFAROMINE] and write its reported CC50 at 48 h.
Reply | 19.1

Ask | Write down CC50 at 48 h measured for item OCc1cc(C(O)CNCCCCCCOCCCCc2ccccc2)ccc1O (stereo not given) [SALMETEROL]
Reply | 18.6

Ask | For the molecule Cc1cccc(C)c1NC(=O)CN1CCN(CCCC(c2ccc(F)cc2)c2ccc(F)cc2)CC1 [LIDOFLAZINE] , give its measured CC50 at 48 h value.
Reply | 8.32

Ask | Using the record for COc1cc2c3cc1Oc1c(OC)c(OC)cc4c1[C@@H](Cc1cccc(c1)Oc1ccc(c(O)c1)C[C@@H]3N(C)CC2)N(C)CC4 , state its measured CC50 at 48 h.
Reply | 10.2

Ask | Give the measured CC50 at 48 h for CN1CCC(=C2c3ccccc3Oc3ccc(Cl)cc32)CC1 [CLOPIPAZAN]
Reply | 14.8

Ask | # return recorded CC50 at 48 h for entry CCN(CC)CCOc1ccc(-c2nc3cc(Cl)ccc3s2)cc1 [HALETHAZOLE]
Reply | 3.72

Ask | Give CC50 at 48 h for Fc1ccc([C@@H]2CCNC[C@H]2COc2ccc3c(c2)OCO3)cc1 [PAROXETINE]
Reply | 16.6

Ask | Return the recorded CC50 at 48 h value; entry: COc1ccc2cc1Oc1ccc(cc1)C[C@H]1c3cc(c(OC)cc3CCN1C)Oc1c(OC)c(OC)cc3c1[C@H](C2)N(C)CC3 [FANCHININ]
Reply | 5.13

Ask | Give me measured CC50 at 48 h, please, for this molecule: Oc1cc2c(cc1O)[C@H]1c3ccccc3CN[C@@H]1CC2 [DIHYDREXIDINE]
Reply | 18.6

Ask | Please report the measured CC50 at 48 h for Cc1c(O)cccc1C(=O)N[C@@H](CSc1ccccc1)[C@H](O)CN1C[C@H]2CCCC[C@H]2C[C@H]1C(=O)NC(C)(C)C
Reply | 11.2

Ask | Entry O=C(c1ccc(F)cc1)C1CCN(CCCn2c(=O)[nH]c3cc(Cl)ccc32)CC1 [MILENPERONE] needs its CC50 at 48 h filled in; supply it.
Reply | 32.4

Ask | Please supply the value of reported CC50 at 48 h for the item Cc1nc(Nc2ccc(F)cc2)nc(N2CCc3ccccc3C2C)c1C (stereo not given) [REVAPRAZAN]
Reply | 11.5

Ask | # return recorded CC50 at 48 h for input Cc1ccc(CCCO)c(NCc2ccc3nc(NCCCN4CCOCC4)n(Cc4nc(C)ccc4O)c3c2)c1
Reply | 9.33

Ask | Consider the molecule CN1CCC(CN2c3ccccc3Sc3ccccc32)C1 (stereo not given) [METHDILAZINE] . State its measured CC50 at 48 h.
Reply | 14.8

Ask | Fill in CC50 at 48 h for record COc1ccc2c(c1)N(C[C@H](C)CN(C)C)c1ccccc1S2 [LEVOMEPROMAZINE]
Reply | 11.5

Ask | Fill in reported CC50 at 48 h for this entry: OCCN1CCN(CCCN2c3ccccc3Sc3ccc(C(F)(F)F)cc32)CC1 [FLUPHENAZINE]
Reply | 7.76

Ask | Please look at this molecule and report its CC50 at 48 h: Cc1cc(C)c2nc(-c3cnc(NCCCC4CCN(C)CC4)nc3C)[nH]c2c1 [TOREFORANT]
Reply | 22.4

Ask | Read the entry C#C[C@]1(O)CCC2C3CCc4cc(OC5CCCC5)ccc4C3CCC21C (stereo not given in full) and write its reported CC50 at 48 h.
Reply | 7.59

Ask | Tell me measured CC50 at 48 h for Clc1ccc(-c2nn(Cc3ccccc3)c3c2CCNCC3)cc1 [JNJ-18038683 FREE BASE] please.
Reply | 14.5

Ask | Answer with the recorded CC50 at 48 h of CC(CN1c2ccccc2Sc2ccccc21)N(C)C (stereo not given) [PROMETHAZINE] only.
Reply | 33.1

Ask | Retrieve CC50 at 48 h measured for COc1cc(/C=C/C(=O)N2CCC=CC2=O)cc(OC)c1OC [PIPLARTINE] and print it.
Reply | 9.55

Ask | Please report CC50 at 48 h for the following molecule: O=C(N[C@H]1CN2CCC1CC2)c1cc2cccc(Cl)c2s1 [ENCENICLINE]
Reply | 20.9

Ask | Give reported CC50 at 48 h value for O=c1ccc2ccc(OCCCCN3CCN(c4cccc5sccc45)CC3)cc2[nH]1 [BREXPIPRAZOLE]
Reply | 12

Ask | Answer with the recorded CC50 at 48 h for the molecule listed here: COc1cccc2c1C(=O)c1c(O)c3c(c(O)c1C2=O)C[C@@](O)(C(=O)CO)C[C@@H]3O[C@H]1C[C@H](N)[C@H](O)[C@H](C)O1 [DOXORUBICIN]
Reply | 64.6

Ask | Provide measured CC50 at 48 h value, entry: CN1CCN(CC/C=C2/c3ccccc3Sc3ccc(S(=O)(=O)N(C)C)cc32)CC1 [THIOTHIXENE]
Reply | 4.9

Ask | Give CC50 at 48 h for the following molecule: NC(CO)(CO)CCc1ccc(Sc2cccc(OCc3ccccc3)c2)cc1Cl [MOCRAVIMOD]
Reply | 3.02

These measurements were taken from ChEMBL document CHEMBL4651402.
